Numbers sourced from paper PMC7658073.

Molecular target: UGT1A9 (Homo sapiens, UniProt O60656)
Sequence (O60656 26-530): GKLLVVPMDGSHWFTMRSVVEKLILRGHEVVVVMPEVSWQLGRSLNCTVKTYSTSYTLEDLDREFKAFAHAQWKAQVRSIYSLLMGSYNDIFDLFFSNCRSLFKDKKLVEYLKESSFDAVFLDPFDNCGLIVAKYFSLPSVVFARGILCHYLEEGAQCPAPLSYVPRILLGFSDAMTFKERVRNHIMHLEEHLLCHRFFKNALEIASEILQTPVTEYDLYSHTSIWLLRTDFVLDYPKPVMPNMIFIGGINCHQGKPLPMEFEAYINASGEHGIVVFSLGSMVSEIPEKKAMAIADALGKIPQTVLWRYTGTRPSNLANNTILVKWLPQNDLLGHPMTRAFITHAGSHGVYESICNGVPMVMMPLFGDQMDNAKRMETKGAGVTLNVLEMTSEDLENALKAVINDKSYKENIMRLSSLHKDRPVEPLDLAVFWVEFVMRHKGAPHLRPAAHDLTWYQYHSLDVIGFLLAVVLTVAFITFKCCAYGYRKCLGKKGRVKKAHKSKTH
Test: Inhibitory potency towards UGT isoforms: UGT1A9
Property Measured: Ki (µM)
Form entry: value (µM) — number only.

Summary for this compound, "COC(=O)Nc1c(N)nc(-c2nn(Cc3ccccc3F)c3ncc(F)cc23)nc1N" : Ki is 6.6
